METHOD_SUMMARY: Cytotoxicity against mouse RAW264.7 cells assessed as reduction in cell viability incubated for 48 hrs by MTT assay
Format: toxicity, cell-based
QUANTITY: IC50 at 48 h
Units required after the number.

QUERY: Fill blank: measured IC50 at 48 h of the molecule O=[N+]([O-])c1cc(C(F)(F)F)ccc1NCCc1c[nH]c2ccc(O)cc12 is ____.
RESULT: 29 µM

###

The entries below come with measured pKi values attached.
METHOD_SUMMARY: Inhibition of recombinant Mycobacterium tuberculosis salicylate synthase by fluorimetric assay
Please treat pKi as minus the base-10 logarithm of the molar concentration.

Solved entries:
N#Cc1cc([N+](=O)[O-])ccc1-c1ccc(C(=O)O)o1; 5.30
N#Cc1cc(C(F)(F)F)ccc1-c1ccc(C(=O)O)o1; 5.24

QUERY: Fill blank: measured pKi of the compound O=C(O)c1ccc(-c2ccc(C(F)(F)F)cc2C(F)(F)F)o1 is ____.
RESULT: 5.06

###

MEASUREMENT_TARGET: Salicyl-AMP ligase / salicyl-S-ArCP synthetase (Mycobacterium tuberculosis)
Sequence (P71716 whole entry): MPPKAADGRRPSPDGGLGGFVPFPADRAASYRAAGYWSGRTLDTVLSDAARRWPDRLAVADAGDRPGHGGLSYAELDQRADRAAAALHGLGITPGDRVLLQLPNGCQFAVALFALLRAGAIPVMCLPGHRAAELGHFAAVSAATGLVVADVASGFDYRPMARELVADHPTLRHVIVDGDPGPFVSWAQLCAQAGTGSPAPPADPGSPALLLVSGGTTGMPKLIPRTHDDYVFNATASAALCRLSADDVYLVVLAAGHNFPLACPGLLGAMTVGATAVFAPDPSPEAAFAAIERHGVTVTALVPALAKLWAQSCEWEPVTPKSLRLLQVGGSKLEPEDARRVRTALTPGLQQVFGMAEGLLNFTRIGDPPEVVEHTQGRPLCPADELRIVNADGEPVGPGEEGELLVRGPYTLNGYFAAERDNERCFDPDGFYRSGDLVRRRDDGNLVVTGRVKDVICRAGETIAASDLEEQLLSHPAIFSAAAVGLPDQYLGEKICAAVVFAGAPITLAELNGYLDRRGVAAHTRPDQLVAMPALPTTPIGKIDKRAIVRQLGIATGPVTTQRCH
QUANTITY: pKi
Please treat pKi as minus the base-10 logarithm of the molar concentration.

QUERY: Fill blank: measured pKi of the compound C#CCCC(=O)Nc1ccc(C(=O)c2ccc(Nc3nc(N)c4ncn([C@@H]5O[C@H](COS(=O)(=O)NC(=O)c6ccccc6O)[C@@H](O)[C@H]5O)c4n3)cc2)cc1 is ____.
RESULT: 9.03

###

The entries below come with measured pKi values attached.
METHOD_SUMMARY: Binding affinity to Mycobacterium tuberculosis salicylate synthase using chorismic acid as substrate in presence of MgCl2 by fluorimetric assay
Please treat pKi as minus the base-10 logarithm of the molar concentration.

Solved entries:
Nc1ncnc2c1ncn2[C@@H]1O[C@H](CNS(=O)(=O)NC(=O)c2ccccc2O)[C@@H](O)[C@@H]1F; 8.74
COC(=O)C(=Cc1ccccc1C(F)(F)F)Oc1cccc(C(=O)OC)c1O; 3.90
CC=C(Oc1cccc(C(=O)O)c1O)C(=O)O; 4.96
Nc1ncnc2c1ncn2[C@@H]1O[C@H](CNS(=O)(=O)NC(=O)c2ccccc2O)[C@@H](O)[C@H]1F; 8.77
Nc1ncnc2c1ncn2[C@@H]1O[C@H](CNS(=O)(=O)NC(=O)c2ccccc2O)[C@H](F)[C@H]1O; 9.22
Nc1ncnc2c1ncn2[C@@H]1O[C@H](CNS(=O)(=O)NC(=O)c2ccccc2O)[C@H](F)[C@H]1F; 8.85

QUERY: Fill blank: measured pKi of the compound Nc1ncnc2c1ncn2[C@@H]1O[C@H](CNS(=O)(=O)NC(=O)c2ccccc2O)[C@@H](F)[C@H]1F is ____.
RESULT: 6.86
